molecular target: hSPHK1 (Homo sapiens); construct: to obtain the full-length cDNA of hSPHK1; expressed in transfected cells; host or cells: HEK293; experiment: SPHK-dependent phosphorylation of sphingosine analogs and other lipids (substrate specificity of hSPHK1); type: biochemical; conditions: lipid 50 μM; lysates of HEK293 cells transfected with hSPHK1 as enzyme source
Sequence (Q9NYA1 whole entry): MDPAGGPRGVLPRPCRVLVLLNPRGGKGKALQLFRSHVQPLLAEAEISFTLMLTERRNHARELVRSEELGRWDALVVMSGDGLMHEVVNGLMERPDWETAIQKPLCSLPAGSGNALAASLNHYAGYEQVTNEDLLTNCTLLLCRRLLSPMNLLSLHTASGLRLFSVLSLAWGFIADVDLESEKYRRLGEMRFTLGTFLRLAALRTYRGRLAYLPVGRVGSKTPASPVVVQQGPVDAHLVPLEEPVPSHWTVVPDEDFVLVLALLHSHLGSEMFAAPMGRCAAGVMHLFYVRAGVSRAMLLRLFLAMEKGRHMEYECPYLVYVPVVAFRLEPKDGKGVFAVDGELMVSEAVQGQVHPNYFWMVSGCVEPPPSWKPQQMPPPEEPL
Recorded metric: substrate of hSPHK1 (SPHK-dependent phosphorylation)

INSERT INTO assay_data (molecule, measured_target, observed_result) VALUES
  ('CCCCCCCCCCCCCCC[C@H](O)[C@@H](N)CO [DHS, D,L-threo-dihydrosphingosine]', 'hSPHK1 (Homo sapiens)', 'not substrates'),
  ('CCCCCCCCCCCCC/C=C/[C@@H](O)[C@H](CO)NC(C)=O [C2-ceramide, N-acetyl—sphingosine]', 'hSPHK1 (Homo sapiens)', 'not substrates');
